Biological target: 5-hydroxytryptamine receptor 1A (Homo sapiens)
Assay: agonism at serotonin HTR1A receptor – cell-based, CHO, Ga15 NFAT-bla reporter, primary screen (AID 567);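 note: 0% = DMSO wells and 100% = 5-CT at EC100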
Settings: CHO 5-HT1a Ga15 NFAT-bla reporter, FRET ratio; at 10 µM; hits give high values; 0% basal, 100% maximal reference agonist
Hit rate of the full screen: of about 65,000 compounds, about 370 (0.57%) were called active. For the sample, actives were picked, then their nearest neighbours and some compounds at random.
Catalogue of compounds with associated activation
endpoint label: activation (%)

                                    compound  endpoint_label  value_measured
 0  CC1=C(C(=O)OCc2ccccc2)C(c2ccco2)n2ncnc2N1 (configuration not stated)      activation            2.82
 1  O=C1Nc2c(Br)cc(Br)cc2C1(O)N1CCOCC1 (configuration not stated)      activation             0.9
 2  CCOCCCN1C(=O)CN(C2CCCCC2)C(=O)C1c1ccc(OCC)c(OC)c1 (configuration not stated)      activation            0.91
 3  Cc1noc(NS(=O)(=O)c2ccc(NC(=O)C34CCC(CC3)C4)cc2)c1C      activation            0.73
 4  O=C(CCn1c(=S)[nH]c2ccccc2c1=O)NCCCN1CCCC1=O      activation            -0.9
 5  O=C1c2ccccc2-c2ncnc3c(N4CCOCC4)cc(N4CCOCC4)c1c23      activation            0.99
 6             Fc1cnc(N2CCOCC2)nc1NCc1ccccc1      activation           -1.58
 7  O=C(CCn1c(=O)[nH]c2ccccc2c1=O)NCCCN1CCN(c2cccc(Cl)c2)CC1      activation            21.7
 8  Cc1ccc(NC(=O)Cn2nc(C)c3ccccc3c2=O)c(C)c1      activation           -0.44
 9  Cc1nc(N2CCCC2C(=O)O)c2oc3ccccc3c2n1 (configuration not stated)      activation            0.22
10  CCOC(=O)C1CCN(C(c2cc3cc(C)cc(C)c3[nH]c2=O)c2nnnn2C2CCCCC2)CC1 (configuration not stated)      activation           -0.97
11  CC(C)N1C(=O)C2C(C(=O)NC3CCCCC3)C3C=CC2(O3)C1C(=O)NC1CCCC1 (configuration not stated)      activation           -3.66
12               CCCC(=O)Nc1nnc(CC(=O)OCC)s1      activation           -1.79
13  CCOC(=O)C1(Cc2ccc(O)cc2)NC(c2ccccc2F)C2C(=O)N(C)C(=O)C21 (configuration not stated)      activation           -1.57
14      Cc1onc(-c2ccccc2)c1C(=O)Nc1ccccc1C#N      activation           -0.43
15  CCC1CCCCN1C(=O)Nc1cccc(NC(=O)N2CCCCC2CC)c1 (configuration not stated)      activation           -2.03
16  Cc1noc(COc2ccccc2OCC(O)CNC(C)(C)C)n1 (configuration not stated)      activation            2.09
17  O=C(C1=C(O)C(=O)N(c2ncccn2)C1c1cccs1)c1ccco1 (configuration not stated)      activation           -1.27
18       Cc1noc(C)c1COC(=O)Cn1c(C)nc2ccccc21      activation           -2.62
19  CCn1c(=O)cc(OCC(=O)NCCCN2CCN(c3cccc(Cl)c3)CC2)c2ccccc21      activation           -3.65
20       CCCC(=O)Nc1ccc(C(=O)NCCCn2ccnc2)cc1      activation           -3.99
21  CCn1c(-c2cc(OC)ccc2OC)csc1=Nc1c(C)n(C)n(-c2ccccc2)c1=O      activation           -3.67
22  Cc1cc(C(=O)COC(=O)CCCN2C(=O)c3ccccc3C2=O)c(C)n1C      activation           -2.69
23  COC(=O)C1=CN(C)C=C(C(=O)OC)C1c1ccc(Cl)cc1Cl      activation            13.7
24  Cc1ccc2c(c1)NCC(C(=O)NC1CCC(C)CC1)O2 (configuration not stated)      activation           -2.41
25  CCCC(=O)Nc1ccccc1N1CCN(C(=O)c2ccccc2)CC1      activation            0.59
26  O=C(CCCn1c(=O)[nH]c2cc(Cl)ccc2c1=O)NCCN1CCN(c2ccccc2)CC1      activation            -0.6
27                       Cc1cc(=O)cc(C)[nH]1      activation           -2.27
28  CCn1c(SCC(=O)Nc2ccc3c(c2)OCCO3)nc2c(c1=O)SC(C)C2 (configuration not stated)      activation            1.05
29  CC1CCCCN1CC(=O)NCc1ccc2c(c1)OCO2 (configuration not stated)      activation            0.18
30  O=C(Nc1cc(N2CCOCC2)ncn1)NC1(C(F)(F)F)Oc2ccc(Cl)cc2O1 (configuration not stated)      activation           -2.08
31               Cc1ccc(C(=O)CS(C)(=O)=O)cc1      activation           -5.39
32  CCC(C)NC(=O)C1CCC(=O)N1Cc1ccc(C)cc1 (configuration not stated)      activation           -3.11
33  CC1CCCN(c2ccc(C(=O)NCCc3ccccc3)cn2)C1 (configuration not stated)      activation            -0.9
34  CCC(C(=O)N1CCOCC1)n1c(C(=O)OC)cc2occc21 (configuration not stated)      activation           -0.28
35       CCn1c(SCC(=O)Nc2nccs2)nnc1-c1ccncc1      activation           -0.84
36  COc1ccc(C(C(O)C(=O)c2c[nH]c3ccccc23)N2CCN(c3ccccc3)CC2)cc1 (configuration not stated)      activation           -3.45
